Tested on: WI-38 (human fetal lung fibroblasts)
test-method-notes: MTT cytotoxicity assay, normal cell line WI-38
Format: cell-based
cond: Homo sapiens, normal WI-38 cells, 50% cell growth inhibition after 72 h of drug exposure, read-out: IC50(μM) WI38
Procedure: The cytotoxic activities of target compounds were evaluated against HT-29 (human colon cancer), MDA-MB-231 (human breast cancer), U87MG (human glioblastoma), H460 (human lung cancer), A549 (non-small-cell lung adenocarcinoma), HL-60 (human leukemic) cancer cell lines and one normal cell line WI-38 (human fetal lung fibroblasts) together with references DHA and cisplatin by a MTT assay. […]
// reported IC50 for each item listed
Only the number, expressed in µM, is required.

Examples with answers:
C[C@@H]1CC[C@H]2[C@@H](C)C(OCCNC(=O)c3ccc(COc4ccc(/C=C/S(=O)(=O)Nc5ccc(OC(F)(F)F)cc5)cc4)cc3)O[C@@H]3O[C@@]4(C)CC[C@@H]1[C@]32OO4 (stereo partly shown) | 28.2
COc1cccc(NS(=O)(=O)/C=C/c2ccc(OCc3ccc(C(=O)NCCOC4O[C@@H]5O[C@@]6(C)CC[C@H]7[C@H](C)CC[C@@H]([C@H]4C)[C@@]57OO6)cc3)cc2)c1 (stereo partly shown) | 19.2
C[C@@H]1CC[C@H]2[C@@H](C)C(OCCOc3ccc(/C=C/S(=O)(=O)Nc4ccc(OC(F)(F)F)cc4)cc3)O[C@@H]3O[C@@]4(C)CC[C@@H]1[C@]32OO4 (stereo partly shown) | 37.5

Would you kindly share the measured IC50 for C[C@@H]1CC[C@H]2[C@@H](C)C(OCCNC(=O)c3ccc(COc4ccc(/C=C/S(=O)(=O)Nc5c(Cl)cccc5Cl)cc4)cc3)O[C@@H]3O[C@@]4(C)CC[C@@H]1[C@]32OO4 (stereo partly shown) ?
23.5

Would you kindly share the measured IC50 for C[C@@H]1CC[C@H]2[C@@H](C)C(OCCNC(=O)c3ccc(COc4ccc(/C=C/S(=O)(=O)Nc5ccccc5)cc4)cc3)O[C@@H]3O[C@@]4(C)CC[C@@H]1[C@]32OO4 (stereo partly shown) ?
20
